# targetDesc: T1, human LAG-3 on cells (HEK293-hLAG-3 stable cell line) (human, UniProt P18627 23-525)
# T1 sequence: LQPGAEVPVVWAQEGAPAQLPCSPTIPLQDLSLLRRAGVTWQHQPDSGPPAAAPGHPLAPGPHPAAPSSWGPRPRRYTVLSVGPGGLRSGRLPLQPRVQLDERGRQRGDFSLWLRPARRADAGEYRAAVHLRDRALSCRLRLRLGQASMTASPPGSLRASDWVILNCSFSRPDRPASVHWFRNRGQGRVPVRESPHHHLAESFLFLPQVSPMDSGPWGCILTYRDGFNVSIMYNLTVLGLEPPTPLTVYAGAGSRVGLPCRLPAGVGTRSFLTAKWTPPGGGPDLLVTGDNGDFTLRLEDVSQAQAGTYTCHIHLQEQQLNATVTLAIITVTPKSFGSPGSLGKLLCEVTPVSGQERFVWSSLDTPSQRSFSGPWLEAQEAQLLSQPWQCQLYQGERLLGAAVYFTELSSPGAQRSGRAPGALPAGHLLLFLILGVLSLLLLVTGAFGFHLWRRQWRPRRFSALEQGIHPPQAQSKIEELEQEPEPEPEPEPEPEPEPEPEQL
# experimentDescription: cell-based or functional assay
endpoint: IL-2 production, antigen-specific T lymphocyte stimulation test, 0.016 ug/ml, N = 2
Give the figure together with its unit, number first.

Problem: # input binder: 405B8H3 mouse-human chimeric antibody (antibody, V domains shown, also called mAb103-405B8H3) VH: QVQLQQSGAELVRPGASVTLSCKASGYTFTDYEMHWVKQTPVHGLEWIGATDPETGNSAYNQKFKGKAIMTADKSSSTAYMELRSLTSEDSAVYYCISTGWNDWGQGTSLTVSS VL: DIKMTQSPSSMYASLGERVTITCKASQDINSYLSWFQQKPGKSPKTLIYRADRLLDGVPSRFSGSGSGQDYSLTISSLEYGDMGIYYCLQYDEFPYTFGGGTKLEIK ; wanted: its IL-2 production, antigen-specific T lymphocyte stimulation test, 0.016 ug/ml, N = 2
Result: 420 pg/mL

Problem: Try the binder 409B11E12 mouse-human chimeric antibody (antibody, V domains shown, also called mAb104-409B11E12) VH: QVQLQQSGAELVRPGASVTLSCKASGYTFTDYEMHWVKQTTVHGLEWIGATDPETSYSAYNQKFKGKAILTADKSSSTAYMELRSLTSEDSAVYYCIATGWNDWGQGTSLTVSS VL: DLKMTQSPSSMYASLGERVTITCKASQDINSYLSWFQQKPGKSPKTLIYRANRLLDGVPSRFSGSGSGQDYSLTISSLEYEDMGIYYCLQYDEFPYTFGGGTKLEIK
Result: 433 pg/mL

Problem: Try the binder 409D4E10 mouse-human chimeric antibody (antibody, V domains shown, also called mAb112-409D4E10) VH: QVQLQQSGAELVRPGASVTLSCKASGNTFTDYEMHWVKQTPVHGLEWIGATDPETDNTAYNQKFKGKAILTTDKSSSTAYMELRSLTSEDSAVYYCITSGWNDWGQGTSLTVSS VL: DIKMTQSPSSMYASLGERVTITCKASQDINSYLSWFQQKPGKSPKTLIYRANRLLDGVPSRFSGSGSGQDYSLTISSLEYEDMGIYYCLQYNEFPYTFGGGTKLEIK
Result: 334 pg/mL

Problem: Try the binder 105F1E10 mouse-human chimeric antibody (antibody, V domains shown, also called mAb009-105F1E10) VH: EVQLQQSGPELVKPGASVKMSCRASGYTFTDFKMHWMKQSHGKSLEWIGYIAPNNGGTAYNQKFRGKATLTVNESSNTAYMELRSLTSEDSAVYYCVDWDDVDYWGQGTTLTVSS VL: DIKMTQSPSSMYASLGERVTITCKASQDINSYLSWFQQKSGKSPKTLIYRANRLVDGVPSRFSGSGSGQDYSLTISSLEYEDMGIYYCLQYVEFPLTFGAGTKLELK
Result: 420 pg/mL

Problem: Try the binder 556F6B8 mouse-human chimeric antibody (antibody, V domains shown, also called mAb123-556F6B8; 556F8B8) VH: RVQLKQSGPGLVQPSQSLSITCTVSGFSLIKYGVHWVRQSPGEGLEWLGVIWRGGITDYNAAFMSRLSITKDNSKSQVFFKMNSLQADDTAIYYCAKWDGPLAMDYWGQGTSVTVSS VL: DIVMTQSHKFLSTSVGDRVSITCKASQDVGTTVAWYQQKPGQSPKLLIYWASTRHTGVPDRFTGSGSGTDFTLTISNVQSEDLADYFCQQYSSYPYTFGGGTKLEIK
Result: 353 pg/mL

Reference source: patent US20210155689A1
